System: MCF-7
Experiment: CellTiterGlo viability assay, initial screening
Type: cell-based
Settings: Homo sapiens, MCF7; MCF-7, 72 hr; read-out: IC50 (relative IC50)
pIC50: −log10 of the molar value.
result-type: pIC50

compound	study-target	pIC50
C[C@H](NP(=O)(N[C@@H](C)C(=O)OCc1ccccc1)OC[C@@H]1CC(O)[C@H](n2cnc3c(N)ncnc32)O1)C(=O)OCc1ccccc1 (stereo in doubt)	MCF-7	4.00 to 4.82

// switching to the query compound
Report pIC50 for Nc1ncnc2c1ncn2[C@@H]1O[C@H](CO)C[C@H]1O [Cordycepin, 3′-deoxyadenosine, reference compound] tested on MCF-7. 4.00 to 4.82

----------
System: HL-60 (TdT negative)
Experiment: ATP (ViaLight plus) cytotoxicity assay
Type: cell-based, Human
Conditions: Homo sapiens, HL-60, 72 h
result-type: IC50 (µM)
Write the value in µM as a bare number.

Answered examples (3):
compound	unit-abbrev	IC50
CCCCCOC(=O)[C@H](CC(C)C)NP(=O)(OC[C@@H]1C[C@@H](O)[C@H](n2cnc3c(N)ncnc32)O1)Oc1cccc2ccccc12 (mixture of isomers)	µM	5.4
C[C@H](NP(=O)(OC[C@@H]1C[C@@H](O)[C@H](n2cnc3c(N)ncnc32)O1)Oc1cccc2ccccc12)C(=O)OCc1ccccc1 (some centres unmarked)	µM	2.6
CCOC(=O)CCc1ccccc1OP(=O)(N[C@@H](C)C(=O)OCc1ccccc1)OC[C@@H]1C[C@@H](O)[C@H](n2cnc3c(N)ncnc32)O1 (some centres unmarked)	µM	8.3

Could you share which IC50 value was measured for COC(=O)C(C)(C)NP(=O)(OC[C@@H]1C[C@@H](O)[C@H](n2cnc3c(N)ncnc32)O1)Oc1cccc2ccccc12 (some centres unmarked) ? 10.2

Follow-up item: C[C@H](NP(=O)(OC[C@@H]1CC(O)[C@H](n2cnc3c(N)ncnc32)O1)Oc1ccccc1)C(=O)OCc1ccccc1 (some centres unmarked) 4.6

----------
System: K562
Assay: Solid tumour and haematological malignancy assay (CellTiterGlo)
Assay type: cell-based
Details: Homo sapiens; K562, 72 hr; read-out: IC50 (absolute IC50)
A collection of molecules and their measured IC50

molecule	IC50
COc1nc(N)c2ncn([C@@H]3O[C@H](CO)C[C@H]3O)c2n1 [2-OMe-Cordycepin, 3′-deoxy-2-methoxyadenosine, reference compound]	> 100 µM

Could you share which IC50 value was measured for Nc1ncnc2c1ncn2[C@@H]1O[C@H](CO)C[C@H]1O [Cordycepin, 3′-deoxyadenosine, reference compound] ? 15 to 100 µM

----------
Test system: MOLT-4
Assay: Solid tumour and haematological malignancy assay (CellTiterGlo)
Assay type: cell-based
Conditions: Homo sapiens, MOLT-4, 72 h, read-out: EC50 (absolute EC50)
result-type: EC50

Could you share which EC50 value was measured for CC(NP(=O)(OC[C@@H]1C[C@@H](O)[C@H](n2cnc3c(N)nc(Cl)nc32)O1)Oc1cccc2ccccc12)C(=O)OCc1ccccc1 (stereo in doubt) ? 5 to 15 µM

----------
Test system: SW620
Experiment: Solid tumour and haematological malignancy assay (CellTiterGlo)
Format: cell-based
Settings: Homo sapiens, SW-620; SW620, 72 hr; read-out: IC50 (absolute IC50)
result-type: IC50

Could you share which IC50 value was measured for Nc1ncnc2c1ncn2[C@@H]1O[C@H](CO)C[C@H]1O [Cordycepin, 3′-deoxyadenosine, reference compound] ? > 100 µM

----------
System: THP-1
Experiment: Solid tumour and haematological malignancy assay (CellTiterGlo)
Assay type: cell-based
Conditions: Homo sapiens; THP-1, 72 hr; read-out: IC50 (absolute IC50)
result-type: IC50

Report IC50 for Nc1ncnc2c1ncn2[C@@H]1O[C@H](CO)C[C@H]1O [Cordycepin, 3′-deoxyadenosine, reference compound] tested on THP-1. > 100 µM

// provenance: patent US10570168B2
